- Run description: Compound gel-forming ability in water (visual inspection, tube tapping assay, tilted tube assay);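 note: peptides mixed with de-ionized water at about 22-25 °C, judged after 20 min by eye plus tube tapping (10 taps, moves counted) and 90° tilt mobility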
- Format: physicochemical
- Test settings: 11% w/w in water
*1 amine or outer side, *2 acyl side, *3 side chain or, on linkers, in order; H or OH if unused. Where no end group is shown, it is not given here. The star is where a group is joined. FITC = O=C1OC2(c3ccc(O)cc3Oc3cc(O)ccc32)c2ccc(NC(=S)*)cc21; K(Pal) = CCCCCCCCCCCCCCCC(=O)NCCCC[C@H](N[*:1])C(=O)[*:2]; Palmitoyl = CCCCCCCCCCCCCCCC(=O)*
Test readout: gel formation at 11% w/w

So what's the measured gel formation at 11% w/w for this one? Pal-SSPHSY-miniPEG-VGVAPG-NH2 [SEQ ID NO:248]
liquid gel

So what's the measured gel formation at 11% w/w for this one? (G1p)RPRLSHKGP(Nle)PF-K(Pal)HSY-NH2 [SEQ ID NO:262]
liquid gel

So what's the measured gel formation at 11% w/w for this one? Pal-KVQKLSAPVDPSSPHSY-miniPEG-Y-(D-Met)-FHLMD-NH2 [SEQ ID NO:210]
semisolid gel

So what's the measured gel formation at 11% w/w for this one? miniPEG-K(PAL)GCRFGTCTVQKLAHQIYQFTDKDVAPRSKISP(D-Gln)GY-NH2 [SEQ ID NO:48]
semisolid gel

So what's the measured gel formation at 11% w/w for this one? (G1p)RPRLSHKGP(Nle)PF-miniPEG-K(Pal)VQKLSAPVDPSSPHSY-NH2 [SEQ ID NO:206]
liquid gel

So what's the measured gel formation at 11% w/w for this one? Pal-SSPHSY-miniPEG-SLRRSSCFGGRMDRIGAQSGLGCNSFRY-NH2 [SEQ ID NO:238]
semisolid gel

So what's the measured gel formation at 11% w/w for this one? FITC-K(Pal)SSPHSY-miniPEG-GRKKRRQRRRPQ ({FITC-K(Pal)-Ser-Ser-Pro-H2N-Ser-Tyr-miniPEG}-GRKKRRQRRRPQ) [SEQ ID NO:241]
liquid gel

So what's the measured gel formation at 11% w/w for this one? Pal-KVQKLSAPVDPSSPHSY-miniPEG-EHWSY-(D-2Nal)-LRPG-NH2 [SEQ ID NO:201]
semisolid gel

So what's the measured gel formation at 11% w/w for this one? Pal-SSPHSY-miniPEG-PFRSVQ-NH2 [SEQ ID NO:242]
semisolid gel

So what's the measured gel formation at 11% w/w for this one? Pal-HSYAAVDTSSEITTKDLKEKKEVVEEAEN-NH2 [SEQ ID NO:240]
semisolid gel

***
So what's the measured gel formation at 11% w/w for this one? Pal-KVQKLSAPVDPSSPHSY-miniPEG-CSNLSTCVLGKLSQELHKLQTYPRTNTGSGTP-NH2 [SEQ ID NO:217]
semisolid gel

So what's the measured gel formation at 11% w/w for this one? YADAIFTNSYRKVLGQLSARKLLQDIMSR-NH2 [SEQ ID NO:35, reference compound]
does not form gel

So what's the measured gel formation at 11% w/w for this one? Pal-SSPHSY-miniPEG-RGD-NH2 [SEQ ID NO:247]
semisolid gel

So what's the measured gel formation at 11% w/w for this one? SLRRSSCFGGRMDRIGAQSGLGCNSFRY-NH2 [SEQ ID NO:41, reference compound]
does not form gel

So what's the measured gel formation at 11% w/w for this one? Pal-SSPHSY-miniPEG-FLPLIGRVLSGIL-NH2 ({Palmitoyl-Ser-Ser-Pro-H2N-Ser-Tyr-miniPEG}-FLPLIGRVLSGIL-NH2) [SEQ ID NO:243]
semisolid gel

So what's the measured gel formation at 11% w/w for this one? PFRSVQ-NH2 [SEQ ID NO:37, reference compound]
does not form gel

Values compiled from patent US20200405868A1.
